Tested on: HCT116
Assay Info: viability inhibition vs untreated; higher = more cytotoxic
Run Parameters: genotype: MTA1-KO; 16 nM; 72 h
Structures can show the parent of a compound that is named as a salt.
Test Readout: viability inhibition (%)
Give your result in % as a bare value.

compound=S=c1nc[nH]c2nc[nH]c12 test_readout="viability inhibition" recorded_number=-23.8
compound=O=c1c2cc(O)c(O)cc2oc2cc(O)c([C@@H]3O[C@H](CO)[C@@H](O)[C@H](O)[C@H]3O)c(O)c12 test_readout="viability inhibition" recorded_number=-12.5
compound="O=C(O[C@@H]1Cc2c(O)cc(O)cc2O[C@@H]1c1cc(O)c(O)c(O)c1)c1cc(O)c(O)c(O)c1 [(-)-Epigallocatechin Gallate]" test_readout="viability inhibition" recorded_number=13

Item: O=C(O)[C@@]1(CCCCCCOc2ccc(Cl)cc2)CO1 [(R)-Etomoxir sodium salt] Test system: HCT116 Read-out: viability inhibition Value: ? -11.4

And then "COc1cnc(NS(=O)(=O)c2ccc(N)cc2)nc1" , what is it? -10.8

And then NS(=O)(=O)c1cc2c(cc1Cl)NC(C(Cl)Cl)NS2(=O)=O (stereo unspecified) [Trichlormethiazide] , what is it? -29.5

And then CC[C@H](C)C(=O)O[C@H]1C[C@H](O)C=C2C=C[C@H](C)[C@H](CC[C@@H](O)C[C@@H](O)CC(=O)O)[C@H]21 [Pravastatin sodium] , what is it? 9.21

And then "CC1=C(/C=C/C(C)=C/C=C/C(C)=C/C(=O)O)C(C)(C)CCC1" , what is it? -24.6

And then NS(=O)(=O)c1cc2c(cc1Cl)NCNS2(=O)=O [Hydrochlorothiazide] , what is it? -4.21

And then "O=c1cc(-c2ccc(O)c(O)c2)oc2cc(O)cc(O)c12" , what is it? -5.43

And then "COc1ccc(-c2ccc3c(N4CCOC[C@@H]4C)nc(N4CCOC[C@@H]4C)nc3n2)cc1CO" , what is it? -21.9

And then CC(N)=NCc1cccc(CN)c1 [1400W dihydrochloride] , what is it? 5.1

These data points were gathered from the supplement of paper PMC10477900.
